MEASUREMENT PROTOCOL: Histimine (% vs. 48/40)
Where a SMILES comes first, the peptide text is derived from it. [ ]: non-standard residue; d: D form. The star is where a group is joined. Palmitoyl = CCCCCCCCCCCCCCCC(=O)*
MEASUREMENT KIND: Histimine (% vs. 48/40) (%)

CCCCCCCCCCCCCCCC(=O)N[C@H](C(=O)N[C@H](C(=O)N[C@@H](Cc1ccccc1)C(=O)N[C@@H](CCCNC(=N)N)C(=O)N[C@@H](CO)C(=O)N[C@@H](CO)C(=O)N[C@@H](CCC(=O)O)C(=O)N[C@H](CCCCN)C(=O)N[C@@H](CCCNC(=N)N)C(=O)NCC(=O)N[C@@H](CO)C(=O)N[C@@H](C)C(=O)N[C@@H](CC(=O)O)C(=O)N[C@H](C(=O)N[C@@H](Cc1ccccc1)C(=O)N[C@H](C(N)=O)[C@@H](C)CC)[C@@H](C)CC)C(C)C)[C@@H](C)O [Compound 76] (Palmitoyl-TVFRSSE[dK]RGSADIFI-NH2)    25

----------
TESTED TARGET: APJ receptor (Homo sapiens)
Construct: expressed in transfected cells; host or cells: Human TRex cells (doxycycline-inducible)
MEASUREMENT PROTOCOL: HTRF cAMP assay, inhibition of NKH477 stimulated cAMP in Human TRex cells expressing APJ upon doxycycline induction (APJ-hTREX)
Type: cell-based
CONDITION SUMMARY: read-out: % IA (@ 300 nM)
Where a SMILES comes first, the peptide text is derived from it. [ ]: non-standard residue; d: D form. The star is where a group is joined. Palmitoyl = CCCCCCCCCCCCCCCC(=O)*
MEASUREMENT KIND: percent intrinsic activity at 0.3 µM (%)

CCCCCCCCCCCCCCCC(=O)N[C@H](C(=O)N[C@H](C(=O)N[C@@H](Cc1ccccc1)C(=O)N[C@@H](CCCNC(=N)N)C(=O)N[C@@H](CO)C(=O)NCC(=O)N[C@@H](CCC(=O)O)C(=O)N[C@H](CCCCN)C(=O)N[C@@H](CCCNC(=N)N)C(=O)N[C@@H](CCCNC(=N)N)C(=O)N[C@@H](CO)C(=O)N[C@@H](C)C(=O)N[C@@H](CC(=O)O)C(=O)N[C@H](C(=O)N[C@@H](Cc1ccccc1)C(=O)N[C@H](C(N)=O)[C@@H](C)CC)[C@@H](C)CC)C(C)C)[C@@H](C)O [Compound 73] (Palmitoyl-TVFRSGE[dK]RRSADIFI-NH2)    67

----------
TESTED TARGET: APJ receptor (Homo sapiens, UniProt P35414)
Construct: expressed in transfected cells; host or cells: Human TRex cells (doxycycline-inducible)
Sequence (P35414 1-380): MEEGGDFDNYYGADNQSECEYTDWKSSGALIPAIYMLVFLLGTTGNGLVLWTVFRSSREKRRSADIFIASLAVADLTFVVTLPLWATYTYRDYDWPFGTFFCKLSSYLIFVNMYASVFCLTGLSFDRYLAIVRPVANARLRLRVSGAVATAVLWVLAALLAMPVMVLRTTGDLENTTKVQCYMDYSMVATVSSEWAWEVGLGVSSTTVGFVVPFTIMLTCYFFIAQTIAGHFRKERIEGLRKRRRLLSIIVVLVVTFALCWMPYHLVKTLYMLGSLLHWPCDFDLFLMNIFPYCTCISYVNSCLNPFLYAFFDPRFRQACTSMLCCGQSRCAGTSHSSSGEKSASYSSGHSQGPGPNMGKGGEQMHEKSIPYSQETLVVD
MEASUREMENT PROTOCOL: HTRF cAMP assay, inhibition of NKH477 stimulated cAMP in Human TRex cells expressing APJ upon doxycycline induction (APJ-hTREX)
Format: cell-based
CONDITION SUMMARY: read-out: % IA (@ 300 nM)
Where a SMILES comes first, the peptide text is derived from it. [ ]: non-standard residue; d: D form. The star is where a group is joined. Palmitoyl = CCCCCCCCCCCCCCCC(=O)*
MEASUREMENT KIND: percent intrinsic activity at 0.3 µM (%)

CCCCCCCCCCCCCCCC(=O)N[C@H](C(=O)N[C@H](C(=O)N[C@@H](Cc1ccccc1)C(=O)N[C@@H](CCCNC(=N)N)C(=O)N[C@@H](CO)C(=O)N[C@@H](CO)C(=O)N[C@@H](CCC(=O)O)C(=O)N[C@H](CCCCN)C(=O)N[C@@H](CCCNC(=N)N)C(=O)N[C@@H](CCCNC(=N)N)C(=O)N[C@@H](CO)C(=O)N[C@@H](C)C(=O)N[C@@H](CC(=O)O)C(=O)N[C@H](C(=O)NCC(=O)N[C@H](C(N)=O)[C@@H](C)CC)[C@@H](C)CC)C(C)C)[C@@H](C)O [Compound 79] (Palmitoyl-TVFRSSE[dK]RRSADIGI-NH2)    39
CCCCCCCCCCCCCCCC(=O)N[C@H](C(=O)N[C@H](C(=O)N[C@@H](Cc1ccccc1)C(=O)N[C@@H](CCCNC(=N)N)C(=O)N[C@@H](CO)C(=O)N[C@@H](CO)C(=O)N[C@@H](CCC(=O)O)C(=O)N[C@H](CCCCN)C(=O)N[C@@H](CCCNC(=N)N)C(=O)N[C@@H](CCCNC(=N)N)C(=O)NCC(=O)N[C@@H](C)C(=O)N[C@@H](CC(=O)O)C(=O)N[C@H](C(=O)N[C@@H](Cc1ccccc1)C(=O)N[C@H](C(N)=O)[C@@H](C)CC)[C@@H](C)CC)C(C)C)[C@@H](C)O [Compound 77] (Palmitoyl-TVFRSSE[dK]RRGADIFI-NH2)    64
